# assayedSystem: Cloned human M1 receptor (CHRM1) stably expressed in HEK293 cells (Homo sapiens)
# Sequence (P11229 1-460): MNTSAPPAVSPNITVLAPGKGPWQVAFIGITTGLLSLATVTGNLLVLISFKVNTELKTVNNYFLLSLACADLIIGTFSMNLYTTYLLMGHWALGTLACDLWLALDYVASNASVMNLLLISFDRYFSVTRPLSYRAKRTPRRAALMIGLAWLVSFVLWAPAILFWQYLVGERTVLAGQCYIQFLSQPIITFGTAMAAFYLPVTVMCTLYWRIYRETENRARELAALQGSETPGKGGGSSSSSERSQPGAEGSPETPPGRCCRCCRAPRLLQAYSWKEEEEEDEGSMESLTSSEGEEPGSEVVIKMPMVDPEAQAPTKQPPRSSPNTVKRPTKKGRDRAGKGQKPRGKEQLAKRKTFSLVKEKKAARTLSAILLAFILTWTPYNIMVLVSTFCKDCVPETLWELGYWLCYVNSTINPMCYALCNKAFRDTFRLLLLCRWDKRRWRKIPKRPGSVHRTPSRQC
# experimentDescription: CHRM1 Ca++ Flux Assay (agonist mode, FDSS 7000EX)
# protocolConditions: geometric mean if tested more than once
pEC50: −log10 of the molar value.
attributeMeasured: pEC50

Guide cases for pEC50, answers given:
1) O=C(C1COC1)N1CC2(CC[C@@H](N3CCC(c4ccccc4OCCOC4COC4)CC3)C2)C1 [Example 7EE] : 7.14
2) Fc1cncc(N2CC3(CC[C@@H](N4CCC(c5ccccc5C5CCOCC5)CC4)C3)C2)c1 [Example 5AA] : 6.99
3) O=C(N1CC2(CC[C@@H](N3CCC(c4ccccc4OC4CCOCC4)CC3)C2)C1)C1(F)CC1 (single isomer, unassigned) [Example 9E] : 6.92

P = Fc1ccc(C2CCOCC2)c(C2CCN([C@@H]3CCC4(C3)CN(c3cncnc3)C4)CC2)c1 (single isomer, unassigned) [Example 10C]
Q = COC(C)(C)COc1ccccc1C1CCN([C@@H]2CCC3(C2)CN(C(=O)C2COC2)C3)CC1 [Example 7HH]
R = O=C(C1COC1)N1CC2(CC[C@@H](N3CCC(c4ccccc4OC[C@@H]4CCOC4)CC3)C2)C1 [Example 7E]
S = Fc1ccc(OC2CC3(COC3)C2)c(C2CCN([C@@H]3CCC4(C3)CN(c3nnco3)C4)CC2)c1 [Example 1B]
Could you please order the items by pEC50, going from the lowest number to the highest? Give the labels in the order specified. S, Q, P, R
(S: 6.49, Q: 6.80, P: 7.10, R: 7.34)

1 = c1ccc(C2CCN([C@@H]3CCC4(C3)CN(c3nnco3)C4)CC2)c(OC[C@@H]2COCCO2)c1 [Example 1E]
2 = COc1ccc(Cl)cc1C1CCN([C@H]2CCC3(C2)CN(C(=O)C2(F)CC2)C3)CC1 (single isomer, unassigned) [Example 8B]
3 = Cc1nnc(COc2ccccc2C2CCN([C@@H]3CCC4(C3)CN(C(=O)C3(F)CC3)C4)CC2)o1 (single isomer, unassigned) [Example 7Y]
Could you please order the items by pEC50, going from the lowest number to the highest? Give the labels in the order specified. 3, 1, 2

###

# assayedSystem: Cloned human M1 receptor (CHRM1) stably expressed in HEK293 cells (Homo sapiens)
# Sequence (P11229 1-460): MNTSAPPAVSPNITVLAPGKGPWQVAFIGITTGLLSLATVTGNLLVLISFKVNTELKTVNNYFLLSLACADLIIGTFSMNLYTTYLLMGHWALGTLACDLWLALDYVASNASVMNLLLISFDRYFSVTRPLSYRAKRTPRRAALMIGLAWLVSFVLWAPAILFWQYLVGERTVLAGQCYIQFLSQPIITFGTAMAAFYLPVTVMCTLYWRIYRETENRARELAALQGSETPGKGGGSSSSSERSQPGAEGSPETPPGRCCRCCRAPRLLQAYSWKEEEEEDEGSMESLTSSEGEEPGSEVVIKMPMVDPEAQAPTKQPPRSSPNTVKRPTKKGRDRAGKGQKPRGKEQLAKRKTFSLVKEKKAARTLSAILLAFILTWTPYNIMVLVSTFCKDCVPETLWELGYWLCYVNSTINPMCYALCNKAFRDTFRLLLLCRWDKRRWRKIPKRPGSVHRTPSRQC
# experimentDescription: CHRM1 Ca++ Flux Assay (agonist mode, FDSS 7000EX)
# protocolConditions: geometric mean if tested more than once
pEC50: −log10 of the molar value.
attributeMeasured: pEC50

Guide cases for pEC50, answers given:
1) c1ccc(C2CCN([C@@H]3CCC4(C3)CN(c3nnco3)C4)CC2)c(C2CCOCC2)c1 : 6.75
2) c1ccc(C2CCN([C@@H]3CCC4(C3)CN(c3nncs3)C4)CC2)c(OCC2COC2)c1 : 7.14
3) COc1ccccc1C1CCN([C@@H]2CCC3(C2)CN(c2ncon2)C3)CC1 : 7.82
4) COc1ccccc1C1CCN([C@@H]2CCC3(C2)CN(c2ccns2)C3)CC1 : 7.27
5) CC(C)(O)CCOc1ccccc1C1CCN([C@@H]2CCC3(C2)CN(c2nncs2)C3)CC1 : 7.70

P = O=C(N1CC2(CC[C@@H](N3CCC(c4ccccc4C4CCOCC4)CC3)C2)C1)C1(F)CC1
Q = CC(C)(O)CCOc1ccccc1C1CCN([C@@H]2CCC3(C2)CN(C(=O)C2(F)CC2)C3)CC1 (single isomer, unassigned)
R = COc1ccc(Cl)cc1C1CCN([C@@H]2CCC3(C2)CN(c2ccnnc2)C3)CC1
S = c1ccc(C2CCN([C@@H]3CCC4(C3)CN(c3nncs3)C4)CC2)c(OC2COC2)c1
Could you please order the items by pEC50, going from the lowest number to the highest? Give the labels in the order specified. R, P, Q, S

P = Fc1ccc(OC2CC3(COC3)C2)c(C2CCN([C@@H]3CCC4(C3)CN(c3cncnc3)C4)CC2)c1 (single isomer, unassigned) [Example 10E]
Q = Cc1nccnc1N1CC2(CC[C@@H](N3CCC(c4ccccc4OCC(C)(C)O)CC3)C2)C1
R = O=C(N1CC2(CC[C@@H](N3CCC(c4ccccc4C4(O)CCOCC4)CC3)C2)C1)C1(F)CC1 (single isomer, unassigned) [Example 9G]
# sort list by recorded pEC50, greatest to least Give the labels in the order specified. R, Q, P

###

# assayedSystem: Cloned human M1 receptor (CHRM1) stably expressed in HEK293 cells (Homo sapiens)
# Construct: expressed in transfected cells; host or cells: HEK293
# experimentDescription: CHRM1 Ca++ Flux Assay (agonist mode, FDSS 7000EX)
# Assay type: cell-based
# protocolConditions: HEK293, Percent Activity, read-out: M1 FDSS PA
attributeMeasured: Emax (%)

Guide cases for Emax, answers given:
1. Fc1ccc(OC2CC3(COC3)C2)c(C2CCN([C@@H]3CCC4(C3)CN(c3nnco3)C4)CC2)c1 : 48
2. c1ccc(C2CCN([C@@H]3CCC4(C3)CN(c3cncnc3)C4)CC2)c(OC2CCOCC2)c1 : 42
3. CC(C)COc1ccccc1C1CCN([C@@H]2CCC3(C2)CN(C(=O)C2COC2)C3)CC1 : 75
4. O=C(C1COC1)N1CC2(CC[C@@H](N3CCC(c4ccccc4OCC4(C(F)(F)F)CC4)CC3)C2)C1 : 89
5. c1ccc(C2CCN([C@@H]3CCC4(C3)CN(c3cncnc3)C4)CC2)c(OCC2CCOCC2)c1 : 11

1 = CC(C)(O)COc1ccccc1C1CCN([C@@H]2CCC3(C2)CN(c2ncncn2)C3)CC1
2 = COCCOc1ccccc1C1CCN([C@@H]2CCC3(C2)CN(c2cnc(C)cn2)C3)CC1
3 = c1ccc(C2CCN([C@@H]3CCC4(C3)CN(c3nncs3)C4)CC2)c(OCC2CCOCC2)c1
# sort list by recorded Emax, greatest to least Give the labels in the order specified. 3, 1, 2
(3: 55%, 1: 2%, 2: 0%)

P = COCCOc1ccccc1C1CCN([C@@H]2CCC3(C2)CN(c2ncns2)C3)CC1
Q = c1ccc(C2CCN([C@@H]3CCC4(C3)CN(c3nnco3)C4)CC2)c(-c2ncco2)c1
R = O=C(N1CC2(CC[C@H](N3CCC(c4ccccc4C4CCOCC4)CC3)C2)C1)C1(F)CC1 (single isomer, unassigned)
Could you please order the items by Emax, going from the lowest number to the highest? Give the labels in the order specified. R, P, Q

###

# assayedSystem: human cloned CHRM4 receptor (M4_CHO cells) (Homo sapiens, UniProt P08173)
# Construct: expressed in transfected cells; host or cells: CHO-K1
# Sequence (P08173 whole entry): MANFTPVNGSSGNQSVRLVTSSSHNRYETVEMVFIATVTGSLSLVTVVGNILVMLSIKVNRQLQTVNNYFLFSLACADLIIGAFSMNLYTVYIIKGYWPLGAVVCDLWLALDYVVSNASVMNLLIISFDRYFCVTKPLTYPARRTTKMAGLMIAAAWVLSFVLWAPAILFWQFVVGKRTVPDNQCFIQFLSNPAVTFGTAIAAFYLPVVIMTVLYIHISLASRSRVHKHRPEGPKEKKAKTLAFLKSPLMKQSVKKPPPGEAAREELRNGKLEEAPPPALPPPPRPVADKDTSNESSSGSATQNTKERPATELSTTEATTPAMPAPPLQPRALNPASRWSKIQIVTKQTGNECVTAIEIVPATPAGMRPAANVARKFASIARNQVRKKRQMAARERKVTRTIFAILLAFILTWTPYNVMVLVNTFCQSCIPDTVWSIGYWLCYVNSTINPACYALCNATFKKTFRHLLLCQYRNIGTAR
# experimentDescription: CHRM4 Ca++ Flux Assay (agonist mode, FDSS 7000EX)
# Assay type: cell-based
# protocolConditions: geometric mean if tested more than once, read-out: M4 FDSS EC50
attributeMeasured: EC50 (nM)

1. Fc1ccc(OC2CC3(COC3)C2)c(C2CCN([C@@H]3CCC4(C3)CN(c3nnco3)C4)CC2)c1 [Example 1B] : 1

a = c1ccc(C2CCN([C@@H]3CCC4(C3)CN(c3cncnc3)C4)CC2)c(OC2COC2)c1 [Example 1K]
b = CC(C)Oc1cc(F)ccc1C1CCN([C@@H]2CCC3(C2)CN(C(=O)C2COC2)C3)CC1 [Example 6D]
Pick one, a or b : lowest reported EC50. To answer, give the label that identifies your chosen option. a

a = Fc1ccc(N2CC3(CC[C@@H](N4CCC(c5ccccc5C5CCOCC5)CC4)C3)C2)cn1 [Example 5CC]
b = FC(F)Oc1ccccc1C1CCN([C@@H]2CCC3(C2)CN(c2nncs2)C3)CC1 (single isomer, unassigned) [Example 10O]
Pick one, a or b : lowest reported EC50. To answer, give the label that identifies your chosen option. b
(b: 1 nM, a: 22 nM)
